Assay: Plasma pharmacokinetics of CR665 after single IV infusion in human subjects
Details: male, human, plasma, iv, 0.42 mg/kg, MRTint, males, 1 hour IV infusion, geometric mean
Where a name gives a salt, the structure may show the parent alone. Non-standard residues stand in square brackets, D forms with d. Residues, ends and D or L forms follow the SMILES beside them. *: point of attachment. NH(4-picolyl) = c1cc(CN*)ccn1; dNle = CCCC[C@@H](N)C(=O)O
parameter: MRT
Could you give the number and then its unit, please?

Give recorded MRT. CCCC[C@@H](NC(=O)[C@@H](Cc1ccccc1)NC(=O)[C@H](N)Cc1ccccc1)C(=O)N[C@H](CCCNC(=N)N)C(=O)NCc1ccncc1 [CR665, acetate salt] (H-[dF][dF][dNle][dR]-{NH(4-picolyl)})
37.1 min

----------
Assay: Plasma pharmacokinetics of CR665 after single IV infusion in human subjects
Conditions: male, human, plasma, iv, 0.42 mg/kg, Vz, males, 1 hour IV infusion, geometric mean
Structures can show the parent of a compound that is named as a salt. Non-standard residues stand in square brackets, D forms with d. Residues, ends and D or L forms follow the SMILES beside them. *: point of attachment. NH(4-picolyl) = c1cc(CN*)ccn1; dNle = CCCC[C@@H](N)C(=O)O
parameter: Vd (L)
Numbers only, in L.

Give recorded Vd. CCCC[C@@H](NC(=O)[C@@H](Cc1ccccc1)NC(=O)[C@H](N)Cc1ccccc1)C(=O)N[C@H](CCCNC(=N)N)C(=O)NCc1ccncc1 [CR665, acetate salt] (H-[dF][dF][dNle][dR]-{NH(4-picolyl)})
77.9

----------
Assay: Plasma pharmacokinetics of CR665 after single IV infusion in human subjects
Conditions: male, human, plasma, iv, 0.03 mg/kg, tmax, males, 1 hour IV infusion, median
Structures can show the parent of a compound that is named as a salt. Non-standard residues stand in square brackets, D forms with d. Residues, ends and D or L forms follow the SMILES beside them. *: point of attachment. NH(4-picolyl) = c1cc(CN*)ccn1; dNle = CCCC[C@@H](N)C(=O)O
parameter: Tmax (h)
Give bare numbers, in h.

Give recorded Tmax. CCCC[C@@H](NC(=O)[C@@H](Cc1ccccc1)NC(=O)[C@H](N)Cc1ccccc1)C(=O)N[C@H](CCCNC(=N)N)C(=O)NCc1ccncc1 [CR665, acetate salt] (H-[dF][dF][dNle][dR]-{NH(4-picolyl)})
1

----------
Experiment: Plasma pharmacokinetics of CR665 after single IV infusion in human subjects
Settings: female, human, plasma, intravenous, 0.06 mg/kg, Vz, geometric least squares mean, females, 5-minute infusion
Where a name gives a salt, the structure may show the parent alone. Non-standard residues stand in square brackets, D forms with d. Residues, ends and D or L forms follow the SMILES beside them. *: point of attachment. NH(4-picolyl) = c1cc(CN*)ccn1; dNle = CCCC[C@@H](N)C(=O)O
parameter: Vd (L)
Numbers only, in L.

Give recorded Vd. CCCC[C@@H](NC(=O)[C@@H](Cc1ccccc1)NC(=O)[C@H](N)Cc1ccccc1)C(=O)N[C@H](CCCNC(=N)N)C(=O)NCc1ccncc1 [CR665, acetate salt] (H-[dF][dF][dNle][dR]-{NH(4-picolyl)})
45.7

----------
Experiment: Plasma pharmacokinetics of CR665 after single IV infusion in human subjects
Details: male, human, plasma, intravenous, Apparent volume of distribution at steady state (VSS), males, 0.12 to 0.48 mg/kg dose range
Structures can show the parent of a compound that is named as a salt. Non-standard residues stand in square brackets, D forms with d. Residues, ends and D or L forms follow the SMILES beside them. *: point of attachment. NH(4-picolyl) = c1cc(CN*)ccn1; dNle = CCCC[C@@H](N)C(=O)O
parameter: Vd

Give recorded Vd. CCCC[C@@H](NC(=O)[C@@H](Cc1ccccc1)NC(=O)[C@H](N)Cc1ccccc1)C(=O)N[C@H](CCCNC(=N)N)C(=O)NCc1ccncc1 [CR665, acetate salt] (H-[dF][dF][dNle][dR]-{NH(4-picolyl)})
19 to 23 L

----------
Test: Plasma pharmacokinetics of CR665 after single IV infusion in human subjects
Details: male, human, plasma, iv, 0.24 mg/kg, CL, males, 1 hour IV infusion, geometric mean
Counter-ions that a name gives are not always drawn. Non-standard residues stand in square brackets, D forms with d. Residues, ends and D or L forms follow the SMILES beside them. *: point of attachment. NH(4-picolyl) = c1cc(CN*)ccn1; dNle = CCCC[C@@H](N)C(=O)O
parameter: clearance (mL/min)
Answers are plain numbers, in mL/min.

Give recorded clearance. CCCC[C@@H](NC(=O)[C@@H](Cc1ccccc1)NC(=O)[C@H](N)Cc1ccccc1)C(=O)N[C@H](CCCNC(=N)N)C(=O)NCc1ccncc1 [CR665, acetate salt] (H-[dF][dF][dNle][dR]-{NH(4-picolyl)})
629

----------
Assay: Plasma pharmacokinetics of CR665 after single IV infusion in human subjects
Conditions: male, human, plasma, iv, 0.42 mg/kg, AUC0-∞, males, 1 hour IV infusion, geometric mean
Counter-ions that a name gives are not always drawn. Non-standard residues stand in square brackets, D forms with d. Residues, ends and D or L forms follow the SMILES beside them. *: point of attachment. NH(4-picolyl) = c1cc(CN*)ccn1; dNle = CCCC[C@@H](N)C(=O)O
parameter: AUC(0-inf) (ng·h/mL)
Answers are plain numbers, in ng·h/mL.

Give recorded AUC(0-inf). CCCC[C@@H](NC(=O)[C@@H](Cc1ccccc1)NC(=O)[C@H](N)Cc1ccccc1)C(=O)N[C@H](CCCNC(=N)N)C(=O)NCc1ccncc1 [CR665, acetate salt] (H-[dF][dF][dNle][dR]-{NH(4-picolyl)})
1080

----------
Test: Urinary excretion of CR665 after single IV infusion in human subjects
Assay type: in vivo
Details: male, human, urine, iv, males, 1-hour infusion, Parts A & B; read-out: fe0-24 h, geometric least squares mean
Counter-ions that a name gives are not always drawn. Non-standard residues stand in square brackets, D forms with d. Residues, ends and D or L forms follow the SMILES beside them. *: point of attachment. NH(4-picolyl) = c1cc(CN*)ccn1; dNle = CCCC[C@@H](N)C(=O)O
parameter: dose excreted (%)
Answers are plain numbers, in %.

Give recorded dose excreted. CCCC[C@@H](NC(=O)[C@@H](Cc1ccccc1)NC(=O)[C@H](N)Cc1ccccc1)C(=O)N[C@H](CCCNC(=N)N)C(=O)NCc1ccncc1 [CR665, acetate salt] (H-[dF][dF][dNle][dR]-{NH(4-picolyl)})
3.46

----------
Test: Urinary excretion of CR665 after single IV infusion in human subjects
Format: in vivo
Settings: male, human, urine, iv, 0.09 mg/kg, males, 0.09 mg/kg, 5-minute IV infusion, urine, geometric mean; read-out: fe0-24 h
Protocol: The lower limit of quantification was 1 ng/mL. Urine was collected into standard weight polyethylene containers over the following time intervals: Pre dose (−24 to 0), 0 to 4, 4 to 8, 8 to 12, 12 to 24 and 24 to 48 hours after the start of the infusion. […] The weight (g) of each collection was recorded prior to removal of two sub samples (each approximately 4 mL) into suitably labeled polypropylene containers, which were stored within 2 hours of collection, at approximately −20° C. […]
Structures can show the parent of a compound that is named as a salt. Non-standard residues stand in square brackets, D forms with d. Residues, ends and D or L forms follow the SMILES beside them. *: point of attachment. NH(4-picolyl) = c1cc(CN*)ccn1; dNle = CCCC[C@@H](N)C(=O)O
parameter: dose excreted (%)
Give bare numbers, in %.

Give recorded dose excreted. CCCC[C@@H](NC(=O)[C@@H](Cc1ccccc1)NC(=O)[C@H](N)Cc1ccccc1)C(=O)N[C@H](CCCNC(=N)N)C(=O)NCc1ccncc1 [CR665, acetate salt] (H-[dF][dF][dNle][dR]-{NH(4-picolyl)})
3.56

----------
Test: Plasma pharmacokinetics of CR665 after single IV infusion in human subjects
Conditions: male, human, plasma, iv, 0.015 mg/kg, AUC0-t, males, 1 hour IV infusion, geometric mean
Where a name gives a salt, the structure may show the parent alone. Non-standard residues stand in square brackets, D forms with d. Residues, ends and D or L forms follow the SMILES beside them. *: point of attachment. NH(4-picolyl) = c1cc(CN*)ccn1; dNle = CCCC[C@@H](N)C(=O)O
parameter: AUC(0-t) (ng·h/mL)
Give bare numbers, in ng·h/mL.

Give recorded AUC(0-t). CCCC[C@@H](NC(=O)[C@@H](Cc1ccccc1)NC(=O)[C@H](N)Cc1ccccc1)C(=O)N[C@H](CCCNC(=N)N)C(=O)NCc1ccncc1 [CR665, acetate salt] (H-[dF][dF][dNle][dR]-{NH(4-picolyl)})
30

----------
Test: Plasma pharmacokinetics of CR665 after single IV infusion in human subjects
Conditions: male, human, plasma, iv, 0.03 mg/kg, Vz, males, 5-minute IV infusion, geometric mean
Counter-ions that a name gives are not always drawn. Non-standard residues stand in square brackets, D forms with d. Residues, ends and D or L forms follow the SMILES beside them. *: point of attachment. NH(4-picolyl) = c1cc(CN*)ccn1; dNle = CCCC[C@@H](N)C(=O)O
parameter: Vd (L)
Answers are plain numbers, in L.

Give recorded Vd. CCCC[C@@H](NC(=O)[C@@H](Cc1ccccc1)NC(=O)[C@H](N)Cc1ccccc1)C(=O)N[C@H](CCCNC(=N)N)C(=O)NCc1ccncc1 [CR665, acetate salt] (H-[dF][dF][dNle][dR]-{NH(4-picolyl)})
53.6

Hello, the source for this data is patent US8217000B2, in case you need it.
